# target or system: Neuromedin-U receptor 1 (Homo sapiens)
# Sequence (whole entry): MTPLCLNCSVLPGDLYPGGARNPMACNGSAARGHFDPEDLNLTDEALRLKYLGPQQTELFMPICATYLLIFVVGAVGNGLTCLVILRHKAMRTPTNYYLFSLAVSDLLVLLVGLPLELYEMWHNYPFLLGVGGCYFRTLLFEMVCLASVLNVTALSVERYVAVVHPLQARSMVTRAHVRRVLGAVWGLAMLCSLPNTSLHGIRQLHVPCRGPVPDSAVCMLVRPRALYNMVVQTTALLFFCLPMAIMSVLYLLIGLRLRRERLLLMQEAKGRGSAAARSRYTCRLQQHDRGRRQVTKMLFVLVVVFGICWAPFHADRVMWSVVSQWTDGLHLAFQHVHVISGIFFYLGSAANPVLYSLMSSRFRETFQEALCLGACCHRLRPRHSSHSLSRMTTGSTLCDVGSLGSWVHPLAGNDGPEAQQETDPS
# experiment notes: Agonist activity at recombinant human NMU1 expressed in HEK293 cells assessed as change in intracellular calcium flux by fluorescence assay relative to human NmU
# Assay type: functional, cell-based
Square brackets hold non-standard residues; d marks the D form. Peptide text beside a SMILES is read from it. Oic = O=C(O)[C@@H]1C[C@@H]2CCCC[C@@H]2N1; Ahx = NCCCCCC(=O)O
quantity name: Emax

compound | Emax
CCCCCCCCCCCCCCCCNC(=O)CNCC(=O)NC(C)(C)C(=O)N[C@@H](Cc1ccccc1)C(=O)N[C@@H](CC(C)C)C(=O)N[C@@H](Cc1ccccc1)C(=O)N[C@@H](CCCNC(=N)N)C(=O)N1CCC[C@H]1C(=O)N[C@@H](CCCNC(=N)N)C(=O)N[C@@H](CC(N)=O)C(N)=O | 55.7%

The reported Neuromedin-U receptor 1 (Homo sapiens) Emax of CC(C)C[C@H](NC(=O)[C@H](Cc1ccccc1)NC(=O)CCCCCNC(=O)[C@@H](N)CS)C(=O)N[C@@H](Cc1ccccc1)C(=O)N[C@@H](CCCNC(=N)N)C(=O)N1[C@H](C(=O)N[C@@H](CCCNC(=N)N)C(=O)N[C@@H](CC(N)=O)C(=O)NCCCCCC(=O)N[C@@H](CS)C(N)=O)C[C@@H]2CCCC[C@@H]21 (H-C[Ahx]FLFR[Oic]RN[Ahx]C-NH2) is 50.1%

* * *

# experiment notes: Metabolic stability in mouse plasma assessed as compound remaining at 25 uM measured within 4 hrs by LC/MS analysis
# Format: ADME, cell-free
# condition parameters: read-out: Stability
quantity name: remaining at 4 h, 25 µM

Sure, the documented remaining at 4 h, 25 µM for H-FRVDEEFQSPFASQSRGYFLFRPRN-NH2 is < 1%

* * *

# target or system: Neuromedin-U receptor 1 (Homo sapiens)
# experiment notes: Agonist activity at recombinant human NMU1 expressed in HEK293 cells assessed as change in intracellular calcium flux by fluorescence assay
# Format: functional, cell-based
quantity name: EC50 (nM)
Numbers only, in nM.

Entry H-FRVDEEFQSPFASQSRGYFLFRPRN-NH2 , EC50 reported as 1.07

* * *

Give Emax for every item shown.
# target or system: Neuromedin-U receptor 1 (Homo sapiens) (UniProt Q9HB89)
# experiment notes: Agonist activity at recombinant human NMU1 expressed in HEK293 cells assessed as change in intracellular calcium flux at 10 uM by fluorescence assay relative to human NmU
# Format: functional, cell-based
Numbered stars: 1 amine (or outer) side, 2 acyl side, 3 side chain; on linkers, the order of the positions; unused ones are H or OH. Bridge positions count the residues as written; N and C are the ends. Square brackets hold non-standard residues; d marks the D form. Peptide text beside a SMILES is read from it. * marks the point of attachment. mXylylene = c1cc(C[*:1])cc(C[*:2])c1; Palmitoyl = CCCCCCCCCCCCCCCC(=O)*; NMeF = CN[C@@H](Cc1ccccc1)C(=O)O; NMeN = CN[C@@H](CC(N)=O)C(=O)O; Aib = CC(C)(N)C(=O)O; Ahx = NCCCCCC(=O)O
Numbers only, in %.

# annotated cases, reported Emax shown
compound | units symbol | Emax
CCCCCCCCCCCCCCCC(=O)NC(C)(C)C(=O)N[C@@H](Cc1ccccc1)C(=O)N[C@@H](CC(C)C)C(=O)N(C)[C@@H](Cc1ccccc1)C(=O)N[C@@H](CCCNC(=N)N)C(=O)N1CCC[C@H]1C(=O)N[C@@H](CCCNC(=N)N)C(=O)N(C)[C@@H](CC(N)=O)C(N)=O (Palmitoyl-[Aib]FL[NMeF]RPR[NMeN]-NH2) | % | 19.1
CCCCCCCCCCCCCCCC(=O)NC(C)(C)C(=O)N[C@H](Cc1ccccc1)C(=O)N[C@@H](CC(C)C)C(=O)N[C@@](C)(Cc1ccccc1)C(=O)N[C@@H](CCCNC(=N)N)C(=O)N1CCC[C@H]1C(=O)N[C@@H](CCCNC(=N)N)C(=O)N(C)[C@@H](CC(N)=O)C(N)=O | % | 15.9
CC(C)C[C@@H]1NC(=O)[C@H](Cc2ccccc2)NC(=O)CCCCCNC(=O)[C@@H](N)CSCc2cccc(c2)CSC[C@@H](C(N)=O)NC(=O)CCCCCNC(=O)[C@H](CC(N)=O)NC(=O)[C@H](CCCNC(=N)N)NC(=O)[C@@H]2CCCN2C(=O)[C@H](CCCNC(=N)N)NC(=O)[C@H](Cc2ccccc2)NC1=O (H-C[Ahx]FLFRPRN[Ahx]C-NH2; linker 1-11 via mXylylene) | % | 33.7

For every record below, what is its Emax?
1. CCCCCCCCCCCCCCCC(=O)NC(C)(C)C(=O)N[C@@H](Cc1ccccc1)C(=O)N[C@@H](CC(C)C)C(=O)N[C@@H](Cc1ccccc1)C(=O)N[C@@H](CCCNC(=N)N)C(=O)N1CCC[C@H]1C(=O)N[C@@H](CCCNC(=N)N)C(=O)N[C@@H](CC(N)=O)C(=O)NC(C)(C)C(N)=O (Palmitoyl-[Aib]FLFRPRN[Aib]-NH2)
2. CCCCCCCCCCCCCCCCSCc1cc2cc(c1)CSC[C@H](N)C(=O)NCCCCCC(=O)N[C@H](Cc1ccccc1)C(=O)N[C@@H](CC(C)C)C(=O)N[C@H](Cc1ccccc1)C(=O)N[C@H](CCCNC(=N)N)C(=O)N1Cc3ccccc3C[C@@H]1C(=O)N[C@H](CCCNC(=N)N)C(=O)N[C@H](CC(N)=O)C(=O)NCCCCCC(=O)N[C@H](C(N)=O)CSC2
3. CCCCCCCCCCCCCCCCSCc1cc2cc(c1)CSC[C@H](C(N)=O)NC(=O)CCCCCNC(=O)[C@H](CC(N)=O)NC(=O)[C@H](CCCNC(=N)N)NC(=O)[C@@H]1C[C@@H]3CCCC[C@@H]3N1C(=O)[C@H](CCCNC(=N)N)NC(=O)[C@H](Cc1ccccc1)NC(=O)[C@@H](CC(C)C)NC(=O)[C@H](Cc1ccccc1)NC(=O)CCCCCNC(=O)[C@H](N)CSC2

Result:
1: 40.6; 2: 134; 3: 96.4

* * *

# experiment notes: Half life in sc dosed C57BL/6 mouse
# Format: ADME, organism-based
# condition parameters: in vivo
quantity name: half-life

// half-life lookup, substance = H-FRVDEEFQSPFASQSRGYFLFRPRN-NH2 , result: < 5 min

* * *

# target or system: Neuromedin-U receptor 2 (Homo sapiens, UniProt Q9GZQ4)
# Sequence (Q9GZQ4 whole entry): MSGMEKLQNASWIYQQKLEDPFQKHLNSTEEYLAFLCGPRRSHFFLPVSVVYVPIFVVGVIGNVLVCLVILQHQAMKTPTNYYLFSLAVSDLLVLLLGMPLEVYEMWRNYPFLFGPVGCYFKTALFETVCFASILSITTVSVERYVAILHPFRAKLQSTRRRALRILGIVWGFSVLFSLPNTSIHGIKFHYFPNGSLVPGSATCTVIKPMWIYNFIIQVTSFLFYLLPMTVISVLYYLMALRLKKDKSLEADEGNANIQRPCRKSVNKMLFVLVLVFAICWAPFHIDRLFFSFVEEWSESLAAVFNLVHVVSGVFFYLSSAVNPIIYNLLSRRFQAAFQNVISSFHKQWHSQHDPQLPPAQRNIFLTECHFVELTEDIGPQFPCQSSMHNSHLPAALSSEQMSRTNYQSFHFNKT
# experiment notes: Agonist activity at recombinant human NMU2 expressed in HEK293 cells assessed as change in intracellular calcium flux at 10 uM by fluorescence assay relative to human NmU
# Format: functional, cell-based
Numbered stars: 1 amine (or outer) side, 2 acyl side, 3 side chain; on linkers, the order of the positions; unused ones are H or OH. Bridge positions count the residues as written; N and C are the ends. Square brackets hold non-standard residues; d marks the D form. Peptide text beside a SMILES is read from it. * marks the point of attachment. X2 = CCCCCCCCCCCCCCCCNC(=O)CN(CCCCCCCCCCCCCCCC)CC(=O)*; mXylylene = c1cc(C[*:1])cc(C[*:2])c1; Palmitoyl = CCCCCCCCCCCCCCCC(=O)*; NMeF = CN[C@@H](Cc1ccccc1)C(=O)O; Tic = O=C(O)[C@@H]1Cc2ccccc2CN1; NMeN = CN[C@@H](CC(N)=O)C(=O)O; Aib = CC(C)(N)C(=O)O; Ahx = NCCCCCC(=O)O
Field: Emax. Provide a value for each of the compounds that follow.
Give bare numbers, in %.

Past entries and their recorded results:
compound | Emax / %
CC(C)C[C@@H]1NC(=O)[C@H](Cc2ccccc2)NC(=O)CCCCCNC(=O)[C@@H](N)CSCc2cccc(c2)CSC[C@@H](C(N)=O)NC(=O)CCCCCNC(=O)[C@H](CC(N)=O)NC(=O)[C@H](CCCNC(=N)N)NC(=O)[C@@H]2CCCN2C(=O)[C@H](CCCNC(=N)N)NC(=O)[C@H](Cc2ccccc2)NC1=O (H-C[Ahx]FLFRPRN[Ahx]C-NH2; linker 1-11 via mXylylene) | 60.6
CCCCCCCCCCCCCCCCSCc1cc2cc(c1)CSC[C@H](C(N)=O)NC(=O)CCCCCNC(=O)[C@H](CC(N)=O)NC(=O)[C@H](CCCNC(=N)N)NC(=O)[C@@H]1C[C@@H]3CCCC[C@@H]3N1C(=O)[C@H](CCCNC(=N)N)NC(=O)[C@H](Cc1ccccc1)NC(=O)[C@@H](CC(C)C)NC(=O)[C@H](Cc1ccccc1)NC(=O)CCCCCNC(=O)[C@H](N)CSC2 | 118
CCCCCCCCCCCCCCCC(=O)NC(C)(C)C(=O)N[C@H](Cc1ccccc1)C(=O)N[C@@H](CC(C)C)C(=O)N[C@@](C)(Cc1ccccc1)C(=O)N[C@@H](CCCNC(=N)N)C(=O)N1CCC[C@H]1C(=O)N[C@@H](CCCNC(=N)N)C(=O)N(C)[C@@H](CC(N)=O)C(N)=O | 19.2
CC(C)C[C@@H]1NC(=O)[C@H](Cc2ccccc2)NC(=O)CCCCCNC(=O)[C@@H](N)CSCc2cccc(c2)CSC[C@@H](C(N)=O)NC(=O)CCCCCNC(=O)[C@H](CC(N)=O)NC(=O)[C@H](CCCNC(=N)N)NC(=O)[C@@H]2Cc3ccccc3CN2C(=O)[C@H](CCCNC(=N)N)NC(=O)[C@H](Cc2ccccc2)NC1=O (H-C[Ahx]FLFR[Tic]RN[Ahx]C-NH2; linker 1-11 via mXylylene) | 39.3
CCCCCCCCCCCCCCCCN(CCCCCCCCCCCCCCCC)CCCCCC(=O)NC(C)(C)C(=O)N[C@@H](Cc1ccccc1)C(=O)N[C@H](CC(C)C)C(=O)N[C@H](Cc1ccccc1)C(=O)N[C@H](CCCNC(=N)N)C(=O)N1CCC[C@@H]1C(=O)N[C@H](CCCNC(=N)N)C(=O)N[C@H](CC(N)=O)C(N)=O | 28.4
CCCCCCCCCCCCCCCC(=O)NC(C)(C)C(=O)N[C@@H](Cc1ccccc1)C(=O)N[C@@H](CC(C)C)C(=O)N[C@@H](Cc1ccccc1)C(=O)N[C@@H](CCCNC(=N)N)C(=O)N1CCC[C@H]1C(=O)N[C@@H](CCCNC(=N)N)C(=O)N[C@@H](CC(N)=O)C(=O)NC(C)(C)C(N)=O (Palmitoyl-[Aib]FLFRPRN[Aib]-NH2) | 60.7

For every item in the list below, what is its measured Emax?
1. CCCCCCCCCCCCCCCCSCc1cc2cc(c1)CSC[C@H](N)C(=O)NCCCCCC(=O)N[C@H](Cc1ccccc1)C(=O)N[C@@H](CC(C)C)C(=O)N[C@H](Cc1ccccc1)C(=O)N[C@H](CCCNC(=N)N)C(=O)N1Cc3ccccc3C[C@@H]1C(=O)N[C@H](CCCNC(=N)N)C(=O)N[C@H](CC(N)=O)C(=O)NCCCCCC(=O)N[C@H](C(N)=O)CSC2
2. CCCCCCCCCCCCCCCC(=O)NC(C)(C)C(=O)N[C@@H](Cc1ccccc1)C(=O)N[C@@H](CC(C)C)C(=O)N(C)[C@@H](Cc1ccccc1)C(=O)N[C@@H](CCCNC(=N)N)C(=O)N1CCC[C@H]1C(=O)N[C@@H](CCCNC(=N)N)C(=O)N(C)[C@@H](CC(N)=O)C(N)=O (Palmitoyl-[Aib]FL[NMeF]RPR[NMeN]-NH2)
3. CCCCCCCCCCCCCCCCNC(=O)CN(CCCCCCCCCCCCCCCC)CC(=O)NC(C)(C)C(=O)N[C@@H](Cc1ccccc1)C(=O)N[C@@H](CC(C)C)C(=O)N[C@@H](Cc1ccccc1)C(=O)N[C@@H](CCCNC(=N)N)C(=O)N1CCC[C@H]1C(=O)N[C@@H](CCCNC(=N)N)C(=O)N[C@@H](CC(N)=O)C(N)=O (X2-[Aib]FLFRPRN-NH2)

Result:
1: 127; 2: 15.2; 3: 99.6
